Assay: Preliminary pharmacokinetics in trial 1403-0001 (Arm A D1 q3w, Arm B D1 D8 q4w)
Type: in vivo, human
Settings: human, plasma, oral, 10 mg, Day 8, D1 D8 q4w (Arm B), gMean, N=3; read-out: AUC0-∞
parameter: AUC(0-inf) (µM·h)

compound: Cc1c(C(=O)O)ccc2c3n(nc12)[C@@H]1[C@H](C3)N(CC2CC2)[C@@]2(C(=O)Nc3cc(Cl)ccc32)[C@H]1c1cccc(Cl)c1F [MDM2-antagonist of formula I]
result_unit: µM·h
test_result: 48.4

----------
Test: Preliminary pharmacokinetics in trial 1403-0001 (Arm A D1 q3w, Arm B D1 D8 q4w)
Format: in vivo, human
Conditions: human, plasma, oral, 60 mg, Day 1, D1 D8 q4w (Arm B), median, N=2; read-out: tmax
parameter: Tmax

smiles_str: Cc1c(C(=O)O)ccc2c3n(nc12)[C@@H]1[C@H](C3)N(CC2CC2)[C@@]2(C(=O)Nc3cc(Cl)ccc32)[C@H]1c1cccc(Cl)c1F
test_result: 6 h
